For each entry below, report its viability value.
- ASSAY_OVERVIEW: reversal of MRP1-mediated doxorubicin resistance, pilot screen, H69AR cells, doxorubicin co-treatment (AID 601)
- MEASUREMENT_SETUP: H69AR cells + 2 uM doxorubicin, CellTiter-Glo, 72 h; measured here: viability with 2 uM doxorubicin; at 10 µM; stronger effect = lower value
Your reply should be a number followed by the unit it is expressed in.

Dear colleague, could you send me viability for each of the items below? Thanks.
1. Cc1cc(C)n(-c2cc(N3CCOCC3)nc(-c3ccccc3)n2)n1
2. CCC(Sc1nc2sc(C(=O)OC)c(C)c2c(=O)n1N)C(=O)NCC1CCCO1 (centres undefined)
3. CS(=O)(=O)N1CCN(CC2CC3C=CC2C3)CC1 (centres undefined)
4. Cc1ccc(-c2nnn(CC(=O)N(Cc3cccs3)C(C(=O)NC(C)(C)C)c3ccc(C)o3)n2)o1 (centres undefined)

Result:
1. 81%
2. 87.7%
3. 91.1%
4. 75.7%
